This collection of values is drawn from PubChem BioAssay.

assay: probe aCHRDL2 binding to arrayed compounds – biochemical, biotinylated probe, 635/667 nm fluorescence, primary screen (AID 1100); conditions: small-molecule microarray, higher = more signal
REPORTED_METRIC: composite z-score
Number, no unit, nothing else.

Below are worked cases with known answers.
- O=C1C2C=CC(C(O)c3ccccn3)N(Nc3ccccc3)C2C(=O)N1c1ccccc1 (centres undefined): 0.5
- CCCC=C(CCC)[C@@H](NS(=O)(=O)CC)c1ccccc1: 0.726
- COc1ccc([Si](C)(C)[C@H]2[C@H](CCn3cc(CCO)nn3)O[C@@]3(C(=O)N(Cc4cccc(N5C(=O)c6cccc7cccc5c67)c4)c4ccccc43)[C@@H]2C)cc1: -0.567

Please supply the value of reported composite z-score for the item C=C(C(=O)CC[C@H](OC(=O)c1cccnc1)c1ccc(OCCO)cc1)C(C)C
-0.049

* * *

assay: budding yeast growth modifiers under rapamycin – strain BY4716, OD600, 96 h, primary screen (AID 1091); further: test concentration not given here; settings: S. cerevisiae BY4716 + rapamycin, higher = more signal, called active from +8 up or from −8 down
REPORTED_METRIC: z-score
Number, no unit, nothing else.

Below are worked cases with known answers.
* COC(=O)[C@H]1N=C(c2ccc(OCCCO)cc2)O[C@H]1c1ccccc1CN=[N+]=[N-] | 0.444
* COC(=O)[C@@]1(Cc2ccc(F)cc2)[C@H]2c3cc(C(=O)N(C)C)n(CCSCCO)c3C[C@H]2CN1C(=O)c1ccccc1 | -0.0109
* CC(C)(C)N1CC=CC23O[C@@H]4C=CCCOC(=O)C4[C@H]2C(=O)N(CCCO)[C@@H]3C1=O (some centres not stated) | -0.199
* COC(=O)[C@@]1(Cc2ccc(OC)cc2)[C@H]2c3cc(C(=O)N4CCCC4)n(Cc4ccc(C)o4)c3C[C@H]2CN1C(=O)c1ccccc1 | -2.14
* COC(=O)[C@@]1(Cc2ccc(OC)cc2)[C@H]2c3cc(C(=O)N4CCCC4)n(CCc4ccc(O)c(OC)c4)c3C[C@H]2CN1C(=O)c1ccccc1 | 0.0019

Please supply the value of reported z-score for the item NC(=O)NCC#Cc1ccc2c(c1)[C@]1(C(=O)N2)[C@H](c2ccc(OCCO)cc2)N2[C@H](c3ccccc3)[C@H](c3ccccc3)OC(=O)[C@H]2[C@@H]1C(=O)N1CCCCCCC1
3.66

Please supply the value of reported z-score for the item O=C(CS)NCCCCCNC(=O)[C@@H]1C[C@@H]2C(=O)N3CCC[C@H]3C(=O)N2[C@@H]1c1ccc(O)cc1
0.0036

* * *

Property: composite z-score; scope: individual molecules
molecular target: Fibroblast growth factor 10 (Homo sapiens) (UniProt O15520); assay: compounds binding fibroblast growth factor 10 – biochemical, small-molecule microarray, 635 nm fluorescence, primary screen (AID 1102); details: FGF10 binding, fluorescence 635 nm, higher = more signal
Sequence (O15520 whole entry, looked up): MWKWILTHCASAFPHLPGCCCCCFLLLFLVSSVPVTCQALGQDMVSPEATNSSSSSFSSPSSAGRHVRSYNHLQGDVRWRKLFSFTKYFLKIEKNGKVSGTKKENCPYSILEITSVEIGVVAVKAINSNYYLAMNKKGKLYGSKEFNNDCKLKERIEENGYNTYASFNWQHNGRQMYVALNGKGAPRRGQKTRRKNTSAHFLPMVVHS
Number, no unit, nothing else.

Below are worked cases with known answers.
- NCCCCCCNC(=O)[C@H]1C[C@H]2C(=O)N3CCC[C@H]3C(=O)N2[C@H]1c1ccc(O)cc1: 0.264
- CC(C)C(CO)N1C(=O)[C@@H]2[C@H]3C(=O)OCC=C[C@H]3OC23C=CCN(CCN2CCOCC2)C(=O)[C@@H]13 (stereo partly specified): -0.505

Please supply the value of reported composite z-score for the item COC(=O)C(CC#Cc1ccc2c(c1)[C@]1(C(=O)N2)[C@H](c2ccc(OCCO)cc2)N2[C@H](c3ccccc3)[C@H](c3ccccc3)OC(=O)[C@H]2[C@@H]1C(=O)O)C(=O)OC
0.809

Please supply the value of reported composite z-score for the item COc1cc2c(cc1OC)CN(C(=O)[C@@H]1[C@H]3C(=O)O[C@H](c4ccccc4)[C@H](c4ccccc4)N3[C@H](c3ccc(O)cc3)[C@@]13C(=O)Nc1ccc(C#CCNC(N)=O)cc13)CC2
0.641

Please supply the value of reported composite z-score for the item COc1ccccc1CN1C(=O)c2ccccc2[C@](Cc2ccccc2I)(C(=O)NCCN2CCOCC2)[C@@H]1c1ccc(CO)cc1
1.02

Please supply the value of reported composite z-score for the item C[N+](C)(C)CCCC[C@@H]1NC(=O)[C@H]2C[C@@H](C(=O)NCCCCCCN)[C@@H](c3cccc(OCCO)c3)N2C1=O
1.17
